The reported numbers originate from patent US20230399403A1.

Biological target: T1, full-length human PD-1 expressed on cells (human, UniProt Q15116 25-288)
T1 construct: also called HEK-293 cells ectopically expressing full-length human-PD1 (BPS Biosciences)
T1 sequence (Q15116 25-288 limits assumed): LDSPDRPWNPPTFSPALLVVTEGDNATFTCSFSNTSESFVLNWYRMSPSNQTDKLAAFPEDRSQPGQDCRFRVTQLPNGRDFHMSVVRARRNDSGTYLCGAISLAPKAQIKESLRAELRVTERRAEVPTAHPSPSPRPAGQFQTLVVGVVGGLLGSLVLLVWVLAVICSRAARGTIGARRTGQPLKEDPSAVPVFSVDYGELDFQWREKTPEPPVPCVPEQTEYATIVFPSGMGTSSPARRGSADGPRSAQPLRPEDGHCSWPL
Assay: cell binding, HEK-293 cells expressing full-length human PD-1, CellInsight CX5 imaging
Method: Binding of chimeric and humanized anti-PD-1 antibodies to cell surface expressed hPD-1 was analyzed using HEK-293 cells ectopically expressing full-length human-PD1 (BPS Biosciences; Cat. No. 60680). […] Cell-associated immunofluorescent signals were recorded using a CellInsight CX5 high content imager device (Thermo Fisher). Data was fitted with a 4-parameter logistic model and EC50 values calculated using GraphPad Prism 8.4.3.
EXPERIMENTAL ENDPOINT: log10(EC50) (log10 of the value in ng/mL)
Response schema: value (number) is log10 of EC50 in units of ng/mL.

# annotated cases, reported log10(EC50) shown
>  <BINDER>
MAB-19-0233 (antibody, human IgG1, V domains shown, Chimeric rabbit/human antibody, human IgG1 constant parts with L234A and L235A (LALA)) VH: QSLEESGGDLVKPGASLTLTCKASGIDFSSVYYMCWVRQAPGKGLEWIACIYVGSSGVSYYATWAKGRFTISKTSSTTVTLQMTSLTAADTATYFCARAGYVGAVYVTLTRLDLWGQGTLVTVSS VL: AAVLTQTPSPVSAAVGGTVTISCQSSQSIYTNNDLAWYQQKPGQPPKLLIYDASKLASGVPSRFSGSGSGTQFTLTISGVQSDDAATYYCLGGYDDDADNAFGGGTEVVVK

>  <VALUE>
0.38

$$$$
>  <BINDER>
MAB-19-0603 (antibody, IgG1, V domains shown, Recombinant humanized hIgG1-LALA antibody) VH: QVQLVESGGGLVQPGTSLRLSCSVSGFSLYSYNMGWVRQAPGKGLEYIGIISGGTIGHYASWAKGRFTISRDTSKTTLYLQMNSLTTEDTATYFCARAFYDDYDYNVWGPGTLVTVSS VL: DIVMTQSPSSLSASVGDRVTITCQSSQSVYGNNQLSWYQQKPGKAPKLLIYQASKLETGVPSRFSGSGSGTDFTLTISSLQPEDFATYYCAGGYSSSSDTTFGGGTKVVIK

>  <VALUE>
0.45

$$$$

Enquiry: If you can, please state the reported log10(EC50) value of MAB-19-0598 (antibody, IgG1, V domains shown, Recombinant humanized hIgG1-LALA antibody) VH: QVQLVESGGDVVKPGRSLRLSCKASGIDFSSVYYMCWVRQAPGKGLEWIACIYVGSSGVSYYATWAKGRFTISRDTSTSTLFLQMNSLRAGDTATYYCARAGYVGAVYVTLTRLDLWGQGTLVTVSS VL: DIQMTQSPSSLSASVGGTVTITCQSSQSIYTNNDLAWYQQKPGQPPKLLIYDASKLASGVPSRFSGSGSGTQFTLTISSLQSEDAATYYCLGGYDDDADNAFGGGTEVVVK .
Return: 0.76

Enquiry: If you can, please state the reported log10(EC50) value of MAB-19-0618 (antibody, IgG1, V domains shown, Recombinant humanized hIgG1-LALA antibody) VH: QVQLVESGGGLVQPGTSLRLSCSVSGFSLYSYNMGWVRQAPGKGLEYIGIISGGTIGHYASWAKGRFTISRDTSKTTLYLQMNSLTTEDTATYFCARAFYDDYDYNVWGPGTLVTVSS VL: AIQLTQSPSSLSASVGGTVTITCQSSQSVYGNNQLSWYQQKPGQPPKLLIYQASKLETGVPSRFRGSGSGTQFTLTISSLQSEDFATYYCAGGYSSSSDTTFGGGTEVVVK .
Return: 0.23

Enquiry: If you can, please state the reported log10(EC50) value of MAB-19-0594 (antibody, IgG1, V domains shown, Recombinant humanized hIgG1-LALA antibody) VH: EVQLEESGGGLVKPGGSLRLSCAASGIDFSSVYYMCWVRQAPGKGLEWVSCIYVGSSGVSYYATWAKGRFTISRDNSKNTLYLQMNSLRAEDTAVYYCARAGYVGAVYVTLTRLDLWGRGTLVTVSS VL: DIQMTQSPSSLSASVGGTVTITCQSSQSIYTNNDLAWYQQKPGQPPKLLIYDASKLASGVPSRFSGSGSGTQFTLTISSLQSEDAATYYCLGGYDDDADNAFGGGTEVVVK .
Return: 0.98

Enquiry: If you can, please state the reported log10(EC50) value of MAB-19-0583 (antibody, IgG1, V domains shown, Recombinant humanized hIgG1-LALA antibody) VH: QVQLVESGGDVVKPGRSLRLSCKASGIDFSSVYYMCWVRQAPGKGLEWIACIYVGSSGVSYYATWAKGRFTISRDTSTSTLFLQMNSLRAGDTATYYCARAGYVGAVYVTLTRLDLWGQGTLVTVSS VL: DVVMTQSPSTVSASVGDRVTLTCQSSQSIYTNNDLAWYQQKPGQPPKLLIYDASKLASGVPDRFSGSGSGTDFTLTISSLQADDFATYYCLGGYDDDADNAFGQGTKVEIK .
Return: 0.56

Enquiry: If you can, please state the reported log10(EC50) value of MAB-19-0608 (antibody, IgG1, V domains shown, Recombinant humanized hIgG1-LALA antibody) VH: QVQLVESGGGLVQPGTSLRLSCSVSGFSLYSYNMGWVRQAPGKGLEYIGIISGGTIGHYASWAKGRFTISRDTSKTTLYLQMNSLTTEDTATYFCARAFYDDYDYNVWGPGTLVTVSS VL: DIQMTQSPSTLSASVGDRVTITCQSSQSVYGNNQLSWYQQKPGKAPKLLIYQASKLETGVPSRFSGSGSGTQFTLTISSLQPDDFASYYCAGGYSSSSDTTFGQGTKVEIK .
Return: 0.45

Enquiry: If you can, please state the reported log10(EC50) value of MAB-19-0613 (antibody, IgG1, V domains shown, Recombinant humanized hIgG1-LALA antibody) VH: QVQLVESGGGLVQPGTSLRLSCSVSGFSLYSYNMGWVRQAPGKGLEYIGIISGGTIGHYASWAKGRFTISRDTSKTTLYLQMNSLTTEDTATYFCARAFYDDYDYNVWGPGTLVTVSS VL: DIQMTQSPSSLSASVGDRVTITCQSSQSVYGNNQLSWYQKKPGQAPKLLIYQASKLETGVPSRFSGSGSGTDFTLTISSLQPEDFATYYCAGGYSSSSDTTFGPGTKVDIK .
Return: 0.08

Enquiry: If you can, please state the reported log10(EC50) value of MAB-19-0202 (antibody, V domains shown, Chimeric rabbit/human antibody: rabbit variable regions cloned N-terminal of human IgG1 / kappa constant parts with L234A and L235A (LALA)) VH: QSVEESGGRLVTPGTPLTLTCTVSGFSLYSYNMGWVRQAPGKGLEYIGIISGGTIGHYASWAKGRFTISKTSSTTVDLKMTSLTTEDTATYFCARAFYDDYDYNVWGPGTLVTVSS VL: AAVLTQTPSPVSAAVGGTVTISCQSSQSVYGNNQLSWYQQKPGQPPKLLIYQASKLETGVPSRFKGSGSGTQFTLTISDLESDDAATYYCAGGYSSSSDTTFGGGTEVVVK .
Return: -0.30
